- measured target: recombinant human MASP2 active protease (amino acids 297-686, C-terminal His Tag) (human, UniProt O00187 297-686)
- Sequence (O00187 other isoform, or with tags, fused parts or gaps limits assumed): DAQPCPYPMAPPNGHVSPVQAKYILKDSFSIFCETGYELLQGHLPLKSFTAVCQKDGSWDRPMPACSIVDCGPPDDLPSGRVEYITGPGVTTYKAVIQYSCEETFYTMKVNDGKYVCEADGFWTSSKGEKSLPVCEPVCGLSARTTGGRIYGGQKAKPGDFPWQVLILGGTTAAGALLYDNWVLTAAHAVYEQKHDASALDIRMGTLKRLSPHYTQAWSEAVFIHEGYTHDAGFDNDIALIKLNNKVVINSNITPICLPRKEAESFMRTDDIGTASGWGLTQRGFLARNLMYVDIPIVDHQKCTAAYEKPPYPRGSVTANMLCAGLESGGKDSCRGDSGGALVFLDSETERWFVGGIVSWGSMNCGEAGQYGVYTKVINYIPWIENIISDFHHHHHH
- assay comment: cell-based or functional assay
Bridge positions count the residues as written; N and C are the ends. Square brackets hold non-standard residues; d marks the D form. Ends that are not written are not given here. tBuAla = CC(C)(C)C[C@H](N)C(=O)O; Pen = CC(C)(S)[C@H](N)C(=O)O
property label: human MASP2 IC50 (nM)
The reply should contain only the number, in nM.

Respond only with human MASP2 IC50 recorded for AICSRS[tBuAla]PPI[Pen]IPD-OH (disulfide 3-11; N-terminus assumed; SMILES CC[C@H](C)[C@H](NC(=O)[C@H](C)N)C(=O)N[C@H]1CSSC(C)(C)[C@@H](C(=O)N[C@H](C(=O)N2CCC[C@H]2C(=O)N[C@@H](CC(=O)O)C(=O)O)[C@@H](C)CC)NC(=O)[C@H]([C@@H](C)CC)NC(=O)[C@@H]2CCCN2C(=O)[C@@H]2CCCN2C(=O)[C@H](CC(C)(C)C)NC(=O)[C@H](CO)NC(=O)[C@H](CCCNC(=N)N)NC(=O)[C@H](CO)NC1=O) [AIC+SRS-((tBu)A)-PPI-(Pen)+IPD-OH]
37
